- PROCEDURE_TEXT: yeast display, Sf9 membrane polyspecificity reagent, FACS + sequencing; frameworks hold sequencing errors
REPORTED_PROPERTY: polyreactivity (PSR sort gate)

QVQLVESGGGLVQAGGSLRLSCAASGFTFDRYAMGWYRQAPGKERELVAAITSRGGRTYYADSVKGRFTISRDNAKNTVYLQMNSLKPEDTAVYYCNAVYSQSGYFYRFDYWGQVTQVTVSS
high polyreactivity
QVQLVESGGGLVQEGGSLRLSCAASGSTFAYNAKGWYRQAPGKERELVARISSSGDITYDADSVKGRFTISRDNAKNTVYLQMNSLKPEDTAVYYCAKRYLTRYKGYYYWGQGTQVTVSS
high polyreactivity
QVQLVESGGGLVQAGGSLRLSCAASGSIFVNYAMGWSRQAPGKERELVAAISRDGGRTYYADSVKGRFTISRDNAKNTVYLQMNSLKPEDTAVYYCNAVIPSTAYYRYGYWGQGTQVTVSS
high polyreactivity
